Molecular target: Bcl-2 G101V (Homo sapiens, UniProt P10415, G101V)
Assay: Bcl-2 G101V inhibition, fluorescence polarization (Flu-BIM tracer) binding assay
Settings: FP; 20 nM Bcl2, 5 nM Flu-BIM, 1 h incubation; read-out: Bcl-2 G101V (FP)
Measured IC50 values are reported for all entries that follow.
Give the quantity in nM, number only.

Illustrative cases are given below, each with its answer.
CC1(C)CCC(CN2CCN(c3ccc(C(=O)NS(=O)(=O)c4ccc(NCC5CCOCC5)c([N+](=O)[O-])c4)c(Oc4cnc5[nH]ccc5c4)c3)CC2)=C(c2csc(C(F)(F)F)c2)C1: 45.6
CC1(C)CCC(CN2CCN(c3ccc(C(=O)NS(=O)(=O)c4ccc(NC[C@H]5CC[C@](C)(O)CC5)c([N+](=O)[O-])c4)c(Oc4cnc5[nH]ccc5c4)c3)CC2)=C(c2cc(-c3cc(F)c(F)cc3F)cs2)C1: 36.6

Shifting focus to the compound that follows.
The measured IC50 associated with CC1(C)CCC(CN2CCN(c3ccc(C(=O)NS(=O)(=O)c4ccc(NCC5CCOCC5)c([N+](=O)[O-])c4)c(Oc4cnc5[nH]ccc5c4)c3)CC2)=C(c2csc(CN3CCOCC3)c2)C1 reads 64.2

====

Biological target: Bcl-2 G101V (Homo sapiens, UniProt P10415, G101V)
Assay: Bcl-2 G101V inhibition, fluorescence polarization (Flu-BIM tracer) binding assay
Settings: FP; 20 nM Bcl2, 5 nM Flu-BIM, 1 h incubation; read-out: Bcl-2 G101V (FP)
Each entry below carries its recorded pIC50.
Worth noting: pIC50 values are minus log10 of concentrations stated in mol/L.

CC1(C)CCC(CN2CCN(c3ccc(C(=O)NS(=O)(=O)c4ccc(NC[C@H]5CC[C@](C)(O)CC5)c([N+](=O)[O-])c4)c(Oc4cnc5[nH]ccc5c4)c3)CC2)=C(c2cc(-c3cccc(C(C)(C)O)c3)cs2)C1 [Example 70]: 7.43
CC1(C)CCC(CN2CCN(c3ccc(C(=O)NS(=O)(=O)c4ccc(NC[C@H]5COCCO5)c([N+](=O)[O-])c4)c(Oc4cnc5[nH]ccc5c4)c3)CC2)=C(c2cc(CN3CCOCC3)cs2)C1 [Example 22]: 7.37
CC1(C)CCC(CN2CCN(c3ccc(C(=O)NS(=O)(=O)c4ccc(NC[C@H]5COCCO5)c([N+](=O)[O-])c4)c(Oc4cnc5[nH]ccc5c4)c3)CC2)=C(c2cc(-c3c(F)cc(C(C)(C)O)cc3F)cs2)C1 [Example 64]: 7.43

Consider now this further compound.
pIC50 value, target or system Bcl-2 G101V (Homo sapiens, UniProt P10415, G101V), for CC1(C)CCC(CN2CCN(c3ccc(C(=O)NS(=O)(=O)c4ccc(NC[C@H]5CC[C@@](C)(O)CC5)c([N+](=O)[O-])c4)c(Oc4cnc5[nH]ccc5c4)c3)CC2)=C(c2cc(CN3CCOCC3)cs2)C1 [Example 23] : 7.55

====

Reported values of IC50 for individual entries
Biological target: Bcl-2 G101V (Homo sapiens, UniProt P10415, G101V)
Assay: Bcl-2 G101V inhibition, fluorescence polarization (Flu-BIM tracer) binding assay
Conditions: FP; 20 nM Bcl2, 5 nM Flu-BIM, 1 h incubation; read-out: Bcl-2 G101V (FP)
Report only the number, with the unit nM understood.

CN(C)c1ccccc1-c1csc(C2=C(CN3CCN(c4ccc(C(=O)NS(=O)(=O)c5ccc(NC[C@H]6COCCO6)c([N+](=O)[O-])c5)c(Oc5cnc6[nH]ccc6c5)c4)CC3)CCC(C)(C)C2)c1: 34.1

The recorded IC50 with Bcl-2 G101V (Homo sapiens, UniProt P10415, G101V) for CC1(C)CCC(CN2CCN(c3ccc(C(=O)NS(=O)(=O)c4ccc(NC[C@H]5CC[C@](C)(O)CC5)c([N+](=O)[O-])c4)c(Oc4cnc5[nH]ccc5c4)c3)CC2)=C(c2cc(-c3ccc(F)c(F)c3F)cs2)C1 was 43.5

// molecule CC(=O)NC(C)(C)c1cc(F)c(-c2csc(C3=C(CN4CCN(c5ccc(C(=O)NS(=O)(=O)c6ccc(NC[C@H]7CC[C@](C)(O)CC7)c([N+](=O)[O-])c6)c(Oc6cnc7[nH]ccc7c6)c5)CC4)CCC(C)(C)C3)c2)c(F)c1 , assay Bcl-2 G101V (Homo sapiens, UniProt P10415, G101V), IC50 value: 23.4

Kindly note: Bcl-2 G101V (Homo sapiens, UniProt P10415, G101V), CC1(C)CCC(CN2CCN(c3ccc(C(=O)NS(=O)(=O)c4ccc(NC[C@H]5COCCO5)c([N+](=O)[O-])c4)c(Oc4cnc5[nH]ccc5c4)c3)CC2)=C(c2cc(-c3ccc(Cl)cc3)cs2)C1 , IC50 value reported: 35.4

The values you see were collected from patent US12577245B2.
